Recorded measurements of pEC50, one per entry
# Experimental Target: C3aR (Homo sapiens, UniProt Q16581)
# Construct: peripheral blood mononuclear cells were isolated from buffy coat (obtained from Australian Red Cross Blood Service, Kelvin Grove); endogenous in cells; host or cells: primary human monocyte-derived macrophages (HMDM) differentiated from CD14+ monocytes of donor buffy coat
# Sequence (Q16581 whole entry): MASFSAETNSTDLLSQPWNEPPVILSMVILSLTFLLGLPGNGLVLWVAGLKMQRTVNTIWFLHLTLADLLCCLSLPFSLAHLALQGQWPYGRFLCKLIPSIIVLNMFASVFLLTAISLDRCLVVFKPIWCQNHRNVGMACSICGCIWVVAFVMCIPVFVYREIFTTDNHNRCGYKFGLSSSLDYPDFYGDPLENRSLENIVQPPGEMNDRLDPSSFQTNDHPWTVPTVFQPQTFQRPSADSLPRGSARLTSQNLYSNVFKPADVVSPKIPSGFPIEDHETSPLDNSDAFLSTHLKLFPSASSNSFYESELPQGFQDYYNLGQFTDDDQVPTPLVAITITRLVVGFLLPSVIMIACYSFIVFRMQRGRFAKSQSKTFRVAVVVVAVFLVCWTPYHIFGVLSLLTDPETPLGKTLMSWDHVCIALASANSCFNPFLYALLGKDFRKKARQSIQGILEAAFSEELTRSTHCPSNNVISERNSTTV
# Test: Calcium mobilization assay in HMDM (agonist/antagonist activity)
# Assay type: cell-based
# Applied Conditions: Table 9; Ca^2+ mobilization, HMDM; read-out: EC50
Just so you know, pEC50 here is -log10 of the concentration in molar units; reply with that number alone.

>  <Smiles Code>
CC[C@H](C)[C@H](NC(=O)Cc1c[nH]c2ccccc12)c1nc(C(=O)N[C@@H](CCCNC(=N)N)C(=O)O)co1

>  <Observed Value>
7.14

$$$$
>  <Smiles Code>
N=C(N)NCCC[C@H](NC(=O)c1coc(C(c2ccccc2)c2ccccc2)n1)C(=O)O

>  <Observed Value>
8.18

$$$$
>  <Smiles Code>
CC[C@H](C)[C@H](NC(=O)c1ccccc1Oc1ccccc1)c1nc(C(=O)N[C@@H](CCCNC(=N)N)C(=O)O)co1

>  <Observed Value>
7.27

$$$$

Qu. Quote C3aR (Homo sapiens, UniProt Q16581) pEC50 for entry `CC(C)C[C@H](NC(=O)OC(C)(C)C)c1nc(C(=O)N[C@@H](CCONC(=N)N)C(=O)O)co1` .
Ans. 6.43
